system: L1210 leukemia ip in BDF1 mice, survival T/C; assay: NCI In Vivo Anticancer Drug Screen. Data for tumor model L1210 Leukemia (intraperitoneal) in B6D2F1 (BDF1) mice; conditions: endpoint: mean survival time; dose: 100.0 mg/kg/injection; schedule: Q04DX003 (ip); vehicle: saline with Tween-80; higher = longer survival
Toxic doses and inconclusive results are not listed.
REPORTED_METRIC: T/C

COC(=O)/C(C#N)=N/O: 100 % of control
C=C([Si](C)(C)C)[Si](C)(C)C: 102 % of control
CCOC(=O)c1ccnc2ccc(O)cc12: 104 % of control
CCOC(=O)N/N=C/c1ccc(N(C)CCC#N)cc1: 102 % of control
C[N+]1(C)CCC(=O)CC1: 98 % of control

Prompt: Return T/C for the following compound: O=[N+]([O-])c1cncc([N+](=O)[O-])c1NCc1ccccc1
Completion: 103 % of control

Prompt: Return T/C for the following compound: O=C1c2ccccc2CC1(Br)C(Br)c1ccccc1 (configuration not stated)
Completion: 107 % of control

Prompt: Return T/C for the following compound: CCC(=O)OCC(C)([N+](=O)[O-])[N+](=O)[O-]
Completion: 97 % of control
